Measured values drawn from patent EP3838286B1 for this set.

Here we list molecules with their recorded MBC (µM) B. subtilis (Nisin-resistant) when tested on B. subtilis (Nisin-resistant).
Square brackets hold non-standard residues; d marks the D form. Peptide text beside a SMILES is read from it.
Field format: number, assumed µM, no unit text.

[[record]]
molecule = "CC[C@@H](C)[C@@H](N)C(=O)N[C@H](CC(C)C)C(=O)N[C@H](CCCCN)C(=O)N[C@H](C)C(=O)N[C@@H](C(=O)N[C@H](CCCCN)C(=O)N[C@H](CCCCN)C(=O)N[C@H](CC(C)C)C(=O)N[C@H](CC(C)C)C(=O)N[C@H](CCCCN)C(N)=O)[C@H](C)CC [(i1k10*) enantio, ilkaikkllk] (H-[dI][dL][dK][dA][dI][dK][dK][dL][dL][dK]-NH2)"
property = "MBC (µM) B. subtilis (Nisin-resistant)"
observed = 12.5

[[record]]
molecule = "CC[C@@H](C)[C@@H](N)C(=O)N[C@H](CC(C)C)C(=O)N[C@H](CCCCN)C(=O)N[C@H](C)C(=O)N[C@@H](C(=O)N[C@H](CCCCN)C(=O)N[C@H](CCCCN)C(=O)N[C@H](CC(C)C)C(=O)N[C@H](CC(C)C)C(=O)N[C@H](CCCCN)C(=O)N[C@H](CC(N)=O)C(N)=O)[C@H](C)CC [LTX-D (gallicune-1), ilkaikkllkn] (H-[dI][dL][dK][dA][dI][dK][dK][dL][dL][dK][dN]-NH2)"
property = "MBC (µM) B. subtilis (Nisin-resistant)"
observed = 6.25

[[record]]
molecule = "CC[C@@H](C)[C@@H](N)C(=O)N[C@@H](CC(C)C)C(=O)N[C@@H](CCCCN)C(=O)N[C@@H](C)C(=O)N[C@H](C(=O)N[C@@H](CCCCN)C(=O)N[C@@H](CCCCN)C(=O)N[C@@H](CC(C)C)C(=O)N[C@@H](CC(C)C)C(=O)N[C@@H](CCCCN)C(=O)N[C@H](CC(N)=O)C(N)=O)[C@@H](C)CC [LTX-gallicune-1(i1D-n11D)] (H-[dI]LKAIKKLLK[dN]-NH2)"
property = "MBC (µM) B. subtilis (Nisin-resistant)"
observed = 6.25


Moving on to the next molecule.
Please report MBC (µM) B. subtilis (Nisin-resistant) for the following molecule: CC[C@@H](C)[C@@H](N)C(=O)N[C@@H](CC(C)C)C(=O)N[C@@H](CCCCN)C(=O)N[C@@H](C)C(=O)N[C@H](C(=O)N[C@@H](CCCCN)C(=O)N[C@@H](CCCCN)C(=O)N[C@@H](CC(C)C)C(=O)N[C@@H](CC(C)C)C(=O)N[C@H](CCCCN)C(N)=O)[C@@H](C)CC [i1k10*] (H-[dI]LKAIKKLL[dK]-NH2)
3.12

----------
MIC (µM) L. lactis values recorded for L. lactis
Square brackets hold non-standard residues; d marks the D form. Peptide text beside a SMILES is read from it.
Your answer is read as µM, so omit the unit and give the number.

[[record]]
compound = "CC[C@@H](C)[C@@H](N)C(=O)N[C@@H](CC(C)C)C(=O)N[C@@H](CCCCN)C(=O)N[C@@H](C)C(=O)N[C@H](C(=O)N[C@@H](CCCCN)C(=O)N[C@@H](CCCCN)C(=O)N[C@@H](CC(C)C)C(=O)N[C@@H](CC(C)C)C(=O)N[C@H](CCCCN)C(N)=O)[C@@H](C)CC [i1k10*] (H-[dI]LKAIKKLL[dK]-NH2)"
target_desc = "L. lactis"
observed = 0.78

[[record]]
compound = "CC[C@@H](C)[C@@H](N)C(=O)N[C@@H](CC(C)C)C(=O)N[C@@H](CCCCN)C(=O)N[C@@H](C)C(=O)N[C@H](C(=O)N[C@@H](CCCCN)C(=O)N[C@@H](CCCCN)C(=O)N[C@@H](CC(C)C)C(=O)N[C@@H](CC(C)C)C(=O)N[C@@H](CCCCN)C(=O)N[C@H](CC(N)=O)C(N)=O)[C@@H](C)CC [LTX-gallicune-1(i1D-n11D)] (H-[dI]LKAIKKLLK[dN]-NH2)"
target_desc = "L. lactis"
observed = 1.5

[[record]]
compound = "CC[C@@H](C)[C@@H](N)C(=O)N[C@H](CC(C)C)C(=O)N[C@H](CCCCN)C(=O)N[C@H](C)C(=O)N[C@@H](C(=O)N[C@H](CCCCN)C(=O)N[C@H](CCCCN)C(=O)N[C@H](CC(C)C)C(=O)N[C@H](CC(C)C)C(=O)N[C@H](CCCCN)C(=O)N[C@H](CC(N)=O)C(N)=O)[C@H](C)CC [LTX-D (gallicune-1), ilkaikkllkn] (H-[dI][dL][dK][dA][dI][dK][dK][dL][dL][dK][dN]-NH2)"
target_desc = "L. lactis"
observed = 1.5


Consider the compound CC[C@@H](C)[C@@H](N)C(=O)N[C@H](CC(C)C)C(=O)N[C@H](CCCCN)C(=O)N[C@H](C)C(=O)N[C@@H](C(=O)N[C@H](CCCCN)C(=O)N[C@H](CCCCN)C(=O)N[C@H](CC(C)C)C(=O)N[C@H](CC(C)C)C(=O)N[C@H](CCCCN)C(N)=O)[C@H](C)CC [(i1k10*) enantio, ilkaikkllk] (H-[dI][dL][dK][dA][dI][dK][dK][dL][dL][dK]-NH2) tested on L. lactis; state its MIC (µM) L. lactis.
1.5

----------
experiment: Cytotoxicity assay (resazurin); type: cell-based; conditions: human, BEAS-2B normal lung epithelial cells, normal lung epithelium, read-out: Cytotoxicity IC50 (µM) BEAS
Ends that are not written are not given here.
Property: CC50 at 48 h (µM)
The reply should contain only the number, in µM.

Determine its reported CC50 at 48 h: ILKAIKKLLKN-NH2 [I1N11]
821

----------
experiment: Cytotoxicity assay (resazurin); assay type: cell-based; conditions: human, IMR-90 normal lung fibroblast cells, read-out: Cytotoxicity IC50 (µM) IMR90
Ends that are not written are not given here.
Property: CC50 at 48 h (µM)
The reply should contain only the number, in µM.

Give the measured CC50 at 48 h for ILKAIKKLLKN-NH2 [I1N11]
892

----------
Items are presented alongside their recorded MBC (µM) S. enterica.
tested on: S. enterica
Square brackets hold non-standard residues; d marks the D form. Peptide text beside a SMILES is read from it.
Just the number in µM, nothing appended.

[[record]]
molecule = "CC[C@@H](C)[C@@H](N)C(=O)N[C@H](CC(C)C)C(=O)N[C@H](CCCCN)C(=O)N[C@H](C)C(=O)N[C@@H](C(=O)N[C@H](CCCCN)C(=O)N[C@H](CCCCN)C(=O)N[C@H](CC(C)C)C(=O)N[C@H](CC(C)C)C(=O)N[C@H](CCCCN)C(=O)N[C@H](CC(N)=O)C(N)=O)[C@H](C)CC [LTX-D (gallicune-1), ilkaikkllkn] (H-[dI][dL][dK][dA][dI][dK][dK][dL][dL][dK][dN]-NH2)"
observed = 25

[[record]]
molecule = "CC[C@@H](C)[C@@H](N)C(=O)N[C@@H](CC(C)C)C(=O)N[C@@H](CCCCN)C(=O)N[C@@H](C)C(=O)N[C@H](C(=O)N[C@@H](CCCCN)C(=O)N[C@@H](CCCCN)C(=O)N[C@@H](CC(C)C)C(=O)N[C@@H](CC(C)C)C(=O)N[C@@H](CCCCN)C(=O)N[C@H](CC(N)=O)C(N)=O)[C@@H](C)CC [LTX-gallicune-1(i1D-n11D)] (H-[dI]LKAIKKLLK[dN]-NH2)"
observed = 25

[[record]]
molecule = "CC[C@@H](C)[C@@H](N)C(=O)N[C@H](CC(C)C)C(=O)N[C@H](CCCCN)C(=O)N[C@H](C)C(=O)N[C@@H](C(=O)N[C@H](CCCCN)C(=O)N[C@H](CCCCN)C(=O)N[C@H](CC(C)C)C(=O)N[C@H](CC(C)C)C(=O)N[C@H](CCCCN)C(N)=O)[C@H](C)CC [(i1k10*) enantio, ilkaikkllk] (H-[dI][dL][dK][dA][dI][dK][dK][dL][dL][dK]-NH2)"
observed = 25


Please examine the following record next.
Give a short answer stating reported MBC (µM) S. enterica for CC[C@@H](C)[C@@H](N)C(=O)N[C@@H](CC(C)C)C(=O)N[C@@H](CCCCN)C(=O)N[C@@H](C)C(=O)N[C@H](C(=O)N[C@@H](CCCCN)C(=O)N[C@@H](CCCCN)C(=O)N[C@@H](CC(C)C)C(=O)N[C@@H](CC(C)C)C(=O)N[C@H](CCCCN)C(N)=O)[C@@H](C)CC [i1k10*] (H-[dI]LKAIKKLL[dK]-NH2) .
12.5

----------
test system: E. coli
Ends that are not written are not given here.
Property: MIC (µM) E. coli

Give the value of MIC (µM) E. coli reported for the following: Ac-IKAIKKLLKN-NH2 [Ac I1N10*]
100 µM

Please report the measured MIC (µM) E. coli for ILKAIKKLLKN-NH2 [LTX-gallicune-1 (I1N11)]
6.25 µM

Retrieve MIC (µM) E. coli measured for KLLGLILI-NH2 [K1I8] and print it.
50 µM

Output measured MIC (µM) E. coli for this item: LKAIKKLL-NH2 [L2L9*]
100 µM

Determine its reported MIC (µM) E. coli: ILKAIKK-NH2 [I1K7*, ILKAIKK]
100 µM
